test: Oral bioavailability in cynomolgus monkey at 3 mg/kg; format: ADME, organism-based, Macaca fascicularis; conditions: in vivo
observation_type: bioavailability (%)

# chemical_structure, observation_type, test_result
records = [
    ("COCCCc1cc(CN(C(=O)[C@H]2CNCC[C@@H]2c2ccn(C)c(=O)c2)C2CC2)cc(Br)c1C", "bioavailability", 14),
]

* * *

molecular target: Sodium channel protein type 5 subunit alpha (Homo sapiens, UniProt Q14524); assay: Inhibition of human Nav1.5
Sequence (Q14524 whole entry): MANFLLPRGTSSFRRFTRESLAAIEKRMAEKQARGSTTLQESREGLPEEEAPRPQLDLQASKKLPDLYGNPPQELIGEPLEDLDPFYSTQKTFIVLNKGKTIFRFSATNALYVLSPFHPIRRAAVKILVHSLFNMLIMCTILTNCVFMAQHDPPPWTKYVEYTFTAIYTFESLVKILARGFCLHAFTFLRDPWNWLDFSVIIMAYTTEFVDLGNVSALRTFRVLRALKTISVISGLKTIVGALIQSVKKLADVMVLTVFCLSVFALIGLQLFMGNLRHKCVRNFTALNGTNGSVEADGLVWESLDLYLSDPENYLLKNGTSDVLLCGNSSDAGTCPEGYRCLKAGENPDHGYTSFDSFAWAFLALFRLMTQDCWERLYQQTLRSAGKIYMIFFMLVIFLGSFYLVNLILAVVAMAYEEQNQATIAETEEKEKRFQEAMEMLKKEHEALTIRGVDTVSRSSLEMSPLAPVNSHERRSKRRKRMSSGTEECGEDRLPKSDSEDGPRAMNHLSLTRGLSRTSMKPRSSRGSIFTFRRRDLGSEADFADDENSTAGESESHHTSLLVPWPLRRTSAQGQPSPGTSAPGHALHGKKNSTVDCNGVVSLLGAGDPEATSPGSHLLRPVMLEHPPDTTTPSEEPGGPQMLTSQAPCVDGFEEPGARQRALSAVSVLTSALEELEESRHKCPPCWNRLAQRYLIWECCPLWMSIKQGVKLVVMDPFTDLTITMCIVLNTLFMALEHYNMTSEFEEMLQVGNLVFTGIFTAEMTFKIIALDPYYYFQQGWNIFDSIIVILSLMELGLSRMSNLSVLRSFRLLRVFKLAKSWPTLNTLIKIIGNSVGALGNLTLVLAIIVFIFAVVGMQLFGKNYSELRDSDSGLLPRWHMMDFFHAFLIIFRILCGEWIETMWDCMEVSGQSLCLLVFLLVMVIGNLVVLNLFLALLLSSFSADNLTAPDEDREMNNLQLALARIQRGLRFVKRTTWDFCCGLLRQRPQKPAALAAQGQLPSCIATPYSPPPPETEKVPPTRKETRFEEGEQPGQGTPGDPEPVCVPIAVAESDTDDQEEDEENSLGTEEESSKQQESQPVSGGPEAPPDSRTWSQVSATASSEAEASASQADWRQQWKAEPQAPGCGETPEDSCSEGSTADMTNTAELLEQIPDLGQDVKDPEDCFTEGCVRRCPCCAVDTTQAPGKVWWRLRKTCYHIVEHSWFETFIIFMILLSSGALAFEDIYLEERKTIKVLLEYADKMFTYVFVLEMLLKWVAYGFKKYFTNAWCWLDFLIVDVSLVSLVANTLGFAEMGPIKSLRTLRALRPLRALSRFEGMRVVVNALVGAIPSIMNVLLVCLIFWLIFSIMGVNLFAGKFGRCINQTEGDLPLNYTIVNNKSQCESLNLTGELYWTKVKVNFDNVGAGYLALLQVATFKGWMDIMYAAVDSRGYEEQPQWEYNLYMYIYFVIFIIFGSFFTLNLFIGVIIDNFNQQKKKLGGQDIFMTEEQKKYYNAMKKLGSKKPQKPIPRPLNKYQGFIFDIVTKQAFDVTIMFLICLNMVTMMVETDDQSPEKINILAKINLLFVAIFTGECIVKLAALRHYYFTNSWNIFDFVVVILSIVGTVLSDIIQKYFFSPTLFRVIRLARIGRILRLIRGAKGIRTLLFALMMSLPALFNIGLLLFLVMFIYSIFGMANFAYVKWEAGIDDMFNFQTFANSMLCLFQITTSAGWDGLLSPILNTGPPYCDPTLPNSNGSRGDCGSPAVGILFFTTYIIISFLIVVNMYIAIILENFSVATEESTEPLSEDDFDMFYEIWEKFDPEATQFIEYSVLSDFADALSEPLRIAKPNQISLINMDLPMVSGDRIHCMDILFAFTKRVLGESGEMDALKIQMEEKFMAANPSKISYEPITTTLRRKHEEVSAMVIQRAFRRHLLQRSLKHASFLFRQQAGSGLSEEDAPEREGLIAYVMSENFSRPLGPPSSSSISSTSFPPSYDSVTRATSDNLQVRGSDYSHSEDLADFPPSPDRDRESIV
pIC50: −log10 of the molar value.
observation_type: pIC50

# chemical_structure, tgt, test_result
measured = [
    ("COCCCn1cc(CN(C(=O)[C@H]2CNCC[C@@H]2c2ccn(C)c(=O)c2)C2CC2)c2ccccc21", "Sodium channel protein type 5 subunit alpha (Homo sapiens, UniProt Q14524)", "< 4.52"),
]
